experiment-description: label from the status in PepcDB records

{"chain-sequence": "MYNPVGVAAIGLGRWAYVMADAYTKSEKLKLVTCYSRTEDKREKFGKRYNCAGDATMEALLAREDVEMVIITVPNDKHAEVIEQCARSGKHIYVEKPISVSLDHAQRIDQVIKETGVKFLCGHSSRRLGALRKMKEMIDTKEIGEVSSIEAVFSNERGLELKKGNWRGEPATAPGGPLTQLGVHQIDNLQFLLGPVARVFNFGKPMYTEVENITVNQTLLEFEDGKQAYLGTNWACPGVFSINVYGTKANLFYQLDFSWWSNSDVTDEHSTLIKREFASMSDDPDNRILRDVKVDFESVDHLRVEVEEVADVIRNGGETEIGAEASLRNLAVVLAAVKSVHEKRPVEIAEIIG", "protein production": "not failed"}
{"chain-sequence": "MKSGERSAVADRAQQIMSAARELLDAEGPDALSMRRIAERVGIRAPSLYKHFADKAALVAGLQAQGLTLLAEVQEAAEAEIGADPPLLVLGYAYRRHALASPHLYRITHGWPLARTALPEGLEDRAALPLARAVHGDINIARSFWAFAHGMVVLELDGRFPPGADLDVAWRTGCEAFTQAIRNRPHGSTA", "protein production": "not failed"}

----------
experiment-description: label from the status in PepcDB records

{"chain-sequence": "MILLIMNTDDFQFFIRVADCGSLSKAAQEANISVSVASQRIQRLESTLKLRLFYRTTRKITLTDEGRKLLDFGRYWLDDFITLKDTLTARDKPLTGNLRVTTSATFGIKILTKVIANFALLHPTLNIYLDLNDQNIDLIEHGMDLAIRIGKLNDSSLVAKPLMTNHRLICAAPSYLNQYGMPHSIEDLQQHRCILQQHQNGLTDHWQLIDQKRTVVDVHLKAYFTTNSGEAIRQAALQGLGISNHSRWHVADDLEQGHLIELLPEYQIEPTTIYAVFPNRQFRQPKTELFLSYLQNYFKHEYPWNIRKN", "protein production": "failed"}
{"chain-sequence": "MKRSLRVGSVAGIGIFLHWTFLLLVAAIFAYYYVQSQSLGAALSGMGLILGVFVCVILHELGHALTARRFGVPTRSITLYPIGGLARLERIPSEPMKEFWIAIGGPAVNVVIAFALALVLLVTGGTLAPVALEAPGSHALASLMWINAVLAVFNMLPAFPMDGGRVLRALLALRWDYAQATQTAANVGQGMAVLFGLIGIMTWNPVLLFIALFVYVGAQQESKQAMYRAFTEGTPVREAMVTRFATLTVDDTLDDAVDALLAGTDHDFPVLEAGTVVGLLRRKQLIQALSEHGRDTPVAEVADADCFTTAPSAPLDEVFQQMNARSCSTVPVVDGGQLVGLLTLENVGELIMVSSALETRSHSRVPRDQLSEAPLRERPDGAASSGAPPVP", "protein production": "failed"}

----------
experiment-description: label from the status in PepcDB records

{"chain-sequence": "MSEQKAPIIVKRIKKTSGGHHGGAWKIAYADFVTAMMAFFLLMWLLGSTTRGDLEGIAEYFKTPLKVAMQGGTGSGDSSSVIKGGGADLTRKNGQIKKGEVDADRKSYNLKAAQAELERLETAKLKQLKQRLEAAIDRNPTLKQFKRQLLIDITSEGLRIQIVDEQNRPMFNLASAELQPYTKVILHEIAQVLNDVENRISLSGHTDARPYANGERGYSNWELSADRANASRRELIVGGMSEAKMLRVVGLASSVPFTQAKPFDPVNRRISIIVLNKRTEEAITKEASGAEVTDQNGASDALDRRAPPSDVAAPAAAAK", "protein production": "failed"}
{"chain-sequence": "MPKLGMEPIRKAALVKATIVEIGRAGSLDVTVSQIAKRAGMSSALAHHYFGGKEALFIAAMRHVLSLYGAEVRGALLGAETPAARITAILQASFSATNFRREVVGAWLNFYVLAQTAPQARRLLAIYQRRLRSNLLVGLRPLAGERAADLADGLGALIDGLYLREVLKEGPPDSAAAVACARAYLNAHLKECPL", "protein production": "failed"}
